targetOrSystem: 5-hydroxytryptamine receptor 7 (Homo sapiens, UniProt P34969)
Sequence (P34969 whole entry): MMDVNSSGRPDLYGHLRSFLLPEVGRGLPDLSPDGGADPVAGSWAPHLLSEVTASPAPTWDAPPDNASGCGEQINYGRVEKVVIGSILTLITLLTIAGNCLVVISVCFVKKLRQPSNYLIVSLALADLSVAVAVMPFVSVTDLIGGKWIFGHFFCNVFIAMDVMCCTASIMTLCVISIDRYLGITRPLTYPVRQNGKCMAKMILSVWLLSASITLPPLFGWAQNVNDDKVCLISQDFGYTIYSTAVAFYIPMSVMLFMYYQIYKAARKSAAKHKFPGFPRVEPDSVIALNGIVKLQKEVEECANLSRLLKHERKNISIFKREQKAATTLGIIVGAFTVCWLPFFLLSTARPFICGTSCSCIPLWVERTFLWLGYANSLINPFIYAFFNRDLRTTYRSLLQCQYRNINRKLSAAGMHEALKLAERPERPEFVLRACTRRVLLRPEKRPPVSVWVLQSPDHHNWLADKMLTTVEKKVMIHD
methodNotes: Radiolabel Binding Assay: A stock concentration of 5 nM [3H]LSD (lysergic acid diethyl amide) is prepared in 50 mM Tris-HCl, 10 mM MgCl2, 1 mM EDTA, pH 7.4 (Assay Buffer). Aliquots (50 μl) of radioligand are dispensed into the wells of a 96-well plate containing 100 μl of Assay Buffer. Duplicate 50-μl aliquots of the compound of the disclosure test and chlorpromazine positive control reference compound serial dilutions are added.Membrane fractions of cells expressing recombinant 5HT7 receptors (50 μL) are dispensed into each well. The membranes are prepared from stably tranfected cell lines expressing 5HT7 receptors cultured on 10-cm plates by harvesting PBS-rinsed monolayers, resuspending and lysing in chilled, hypotonic 50 mM Tris-HCl, pH 7.4, centrifuging at 20,000×g, decanting the supernatant and storing at −80° C.; the membrane preparations are resuspended in 3 ml of chilled Assay Buffer and homogenized by several passages through a 26 gauge needle before using in the assay.
Listed compounds paired with reported log10(IC50)
In plain terms, each number is the log10 of measured IC50 in nM.

CC(C)(C)c1ccccc1N1CCN(CCC2CC3(CCCC3)C(=O)O2)CC1 (configuration not stated)	3.28
CCC1(CC)CC(CCN2CCN(c3ccc(N)cc3)CC2)OC1=O (configuration not stated)	2.67
CCC1(CC)CC(CCN2CCN(c3ccc(C)cc3C)CC2)OC1=O (configuration not stated)	2.56
CCC1(CC)CC(CCN2CCN(c3cccc(OC)c3)CC2)OC1=O (configuration not stated)	2.22
CCC1(CC)CC(CCN2CCN(c3ccc(C(O)(c4ccccc4)c4ccccc4)cc3)CC2)OC1=O (configuration not stated)	3.50
CCC1(CC)CC(CCN2CCN(c3ccc(C#N)cc3)CC2)OC1=O (configuration not stated)	2.13

Request: Answer with reported log10(IC50) of CCC1(CC)CC(CCN2CCN(c3c(C)cccc3C)CC2)OC1=O (configuration not stated)
Result: 3.14

Request: Output measured log10(IC50) for this item: Cc1ccc(N2CCN(CCC3CC(c4ccccc4)(c4ccccc4)C(=O)O3)CC2)cc1 (configuration not stated)
Result: 2.16

Request: Quote log10(IC50) reported for CCC1(CC)CC(CCN2CCN(c3ccc(O)cc3)CC2)OC1=O (configuration not stated) please.
Result: 1.95

----------
targetOrSystem: UniProt:P34969
methodNotes: Radiolabel Binding Assay: A stock concentration of 5 nM [3H]LSD (lysergic acid diethyl amide) is prepared in 50 mM Tris-HCl, 10 mM MgCl2, 1 mM EDTA, pH 7.4 (Assay Buffer). Aliquots (50 μl) of radioligand are dispensed into the wells of a 96-well plate containing 100 μl of Assay Buffer. Duplicate 50-μl aliquots of the compound of the disclosure test and chlorpromazine positive control reference compound serial dilutions are added.Membrane fractions of cells expressing recombinant 5HT7 receptors (50 μL) are dispensed into each well. The membranes are prepared from stably tranfected cell lines expressing 5HT7 receptors cultured on 10-cm plates by harvesting PBS-rinsed monolayers, resuspending and lysing in chilled, hypotonic 50 mM Tris-HCl, pH 7.4, centrifuging at 20,000×g, decanting the supernatant and storing at −80° C.; the membrane preparations are resuspended in 3 ml of chilled Assay Buffer and homogenized by several passages through a 26 gauge needle before using in the assay.
// reported IC50 per item
State the answer as a number, implicitly in nM.

CCC1(CC)CC(CCN2CCN(c3cccc(O)c3)CC2)OC1=O (stereo not drawn)	324
O=C1OC(CCN2CCN(c3ccccn3)CC2)CC12CCCCC2 (stereo not drawn)	44
CC(C)c1ccccc1N1CCN(CCC2CC3(CCCC3)C(=O)O2)CC1 (stereo not drawn)	24
CCC1(CC)CC(CCN2CCN(C(c3ccccc3)c3ccccc3)CC2)OC1=O (stereo not drawn)	83
CCC1(CC)CC(CCN2CCN(c3ccc([N+](=O)[O-])cc3)CC2)OC1=O (stereo not drawn)	54

Request: Return reported IC50. Input molecule: O=C1OC(CCN2CCN(c3ccccc3)CC2)CC12CCCCC2 (stereo not drawn)
Result: 33

Request: Note IC50 for the molecule shown: Cc1ccc(N2CCN(CCCC3CC(c4ccccc4)(c4ccccc4)C(=O)O3)CC2)cc1 (stereo not drawn)
Result: 146

Request: For the molecule CCC1(CC)CC(CCN2CCN(c3ccccc3OC)CC2)OC1=O (stereo not drawn) , report IC50.
Result: 118

----------
Form field: pIC50 (one value per entry).
targetOrSystem: 5-hydroxytryptamine receptor 7 (Homo sapiens, UniProt P34969)
methodNotes: Radiolabel Binding Assay: A stock concentration of 5 nM [3H]LSD (lysergic acid diethyl amide) is prepared in 50 mM Tris-HCl, 10 mM MgCl2, 1 mM EDTA, pH 7.4 (Assay Buffer). Aliquots (50 μl) of radioligand are dispensed into the wells of a 96-well plate containing 100 μl of Assay Buffer. Duplicate 50-μl aliquots of the compound of the disclosure test and chlorpromazine positive control reference compound serial dilutions are added.Membrane fractions of cells expressing recombinant 5HT7 receptors (50 μL) are dispensed into each well. The membranes are prepared from stably tranfected cell lines expressing 5HT7 receptors cultured on 10-cm plates by harvesting PBS-rinsed monolayers, resuspending and lysing in chilled, hypotonic 50 mM Tris-HCl, pH 7.4, centrifuging at 20,000×g, decanting the supernatant and storing at −80° C.; the membrane preparations are resuspended in 3 ml of chilled Assay Buffer and homogenized by several passages through a 26 gauge needle before using in the assay.
Bear in mind: pIC50 is minus log10 of a mol/L concentration; give just that figure.

Check out these entries, answers already filled in.
N#Cc1ccc(N2CCN(CCC3CC4(CCCCC4)C(=O)O3)CC2)nc1 (stereo not given)	5.82
O=C1OC(CCN2CCN(c3ccc(C(F)(F)F)cc3)CC2)CC12CCCCC2 (stereo not given)	6.74

Request: Entry CCC1(CC)CC(CCN2CCN(c3ccccc3)CC2)OC1=O (stereo not given) needs its pIC50 filled in; supply it.
Result: 7.68

Request: Specify pIC50 for COc1cccc(N2CCN(CCC3CC4(CCCCC4)C(=O)O3)CC2)c1 (stereo not given) and stop.
Result: 7.25

Request: Provide only the value of recorded pIC50 for CCC1(CC)CC(CCN2CCc3ccccc3C2)OC1=O (stereo not given)
Result: 7.89
